Provenance of the data: BigSolDB 2.1

Details: in isopropanol, 283.15 K
readoutLabel: solubility (mole fraction)
One number for each entry.

Retrieve solubility (mole fraction) measured for Cc1cc(C)c(C(=O)P(=O)(c2ccccc2)c2ccccc2)c(C)c1 and print it.
0.0544

---

Details: in acetone, 308.15 K
readoutLabel: solubility (mole fraction)

Return the recorded solubility (mole fraction) value; entry: Cc1cc(C)c(C(=O)P(=O)(c2ccccc2)c2ccccc2)c(C)c1
0.232

---

Conditions: in ethanol, 303.15 K
readoutLabel: solubility (mole fraction)
Give bare numbers.

Look up and report measured solubility (mole fraction) for this entry: Cc1cc(C)c(C(=O)P(=O)(c2ccccc2)c2ccccc2)c(C)c1
0.218

---

Details: in isobutanol, 288.15 K
readoutLabel: solubility (mole fraction)

Item Cc1cc(C)c(C(=O)P(=O)(c2ccccc2)c2ccccc2)c(C)c1 : provide solubility (mole fraction)
0.133

---

Settings: in isobutanol, 273.15 K
readoutLabel: solubility (mole fraction)
Numbers only.

Supply measured solubility (mole fraction) of Cc1cc(C)c(C(=O)P(=O)(c2ccccc2)c2ccccc2)c(C)c1 in your reply.
0.0761

---

Details: in ethyl acetate, 273.15 K
readoutLabel: solubility (mole fraction)

Recall and state the measured solubility (mole fraction) for Cc1cc(C)c(C(=O)P(=O)(c2ccccc2)c2ccccc2)c(C)c1 .
0.043

---

Settings: in n-propanol, 288.15 K
readoutLabel: solubility (mole fraction)
Give bare numbers.

Note down solubility (mole fraction) recorded for Cc1cc(C)c(C(=O)P(=O)(c2ccccc2)c2ccccc2)c(C)c1
0.139

---

Details: in n-propanol, 298.15 K
readoutLabel: solubility (mole fraction)
One number for each entry.

Item Cc1cc(C)c(C(=O)P(=O)(c2ccccc2)c2ccccc2)c(C)c1 : provide solubility (mole fraction)
0.196

---

Conditions: in isobutanol, 308.15 K
readoutLabel: solubility (mole fraction)
Give bare numbers.

Please look at this compound and report its solubility (mole fraction): Cc1cc(C)c(C(=O)P(=O)(c2ccccc2)c2ccccc2)c(C)c1
0.256

---

Details: in isobutanol, 303.15 K
readoutLabel: solubility (mole fraction)
Numbers only.

Read the entry Cc1cc(C)c(C(=O)P(=O)(c2ccccc2)c2ccccc2)c(C)c1 and write its reported solubility (mole fraction).
0.22

---

Details: in isopropanol, 278.15 K
readoutLabel: solubility (mole fraction)
Numbers only.

Could you please provide reported solubility (mole fraction) for Cc1cc(C)c(C(=O)P(=O)(c2ccccc2)c2ccccc2)c(C)c1 ? Thanks!
0.0366

---

Conditions: in acetone, 303.15 K
readoutLabel: solubility (mole fraction)
Numbers only.

Indicate its recorded solubility (mole fraction); the compound in question is Cc1cc(C)c(C(=O)P(=O)(c2ccccc2)c2ccccc2)c(C)c1
0.197

---

Conditions: in n-propanol, 293.15 K
readoutLabel: solubility (mole fraction)
Numbers only.

State its solubility (mole fraction) for this compound: Cc1cc(C)c(C(=O)P(=O)(c2ccccc2)c2ccccc2)c(C)c1
0.168

---

Settings: in n-butanol, 283.15 K
readoutLabel: solubility (mole fraction)

Recall and state the measured solubility (mole fraction) for Cc1cc(C)c(C(=O)P(=O)(c2ccccc2)c2ccccc2)c(C)c1 .
0.116

---

Settings: in isopropanol, 288.15 K
readoutLabel: solubility (mole fraction)
Answers are plain numbers.

Give the measured solubility (mole fraction) for Cc1cc(C)c(C(=O)P(=O)(c2ccccc2)c2ccccc2)c(C)c1
0.0755

---

Settings: in ethanol, 283.15 K
readoutLabel: solubility (mole fraction)
One number for each entry.

Answer with the recorded solubility (mole fraction) for the compound listed here: Cc1cc(C)c(C(=O)P(=O)(c2ccccc2)c2ccccc2)c(C)c1
0.107
